Target: human μOR (GoB) (Homo sapiens)
Sequence (P35372 whole entry): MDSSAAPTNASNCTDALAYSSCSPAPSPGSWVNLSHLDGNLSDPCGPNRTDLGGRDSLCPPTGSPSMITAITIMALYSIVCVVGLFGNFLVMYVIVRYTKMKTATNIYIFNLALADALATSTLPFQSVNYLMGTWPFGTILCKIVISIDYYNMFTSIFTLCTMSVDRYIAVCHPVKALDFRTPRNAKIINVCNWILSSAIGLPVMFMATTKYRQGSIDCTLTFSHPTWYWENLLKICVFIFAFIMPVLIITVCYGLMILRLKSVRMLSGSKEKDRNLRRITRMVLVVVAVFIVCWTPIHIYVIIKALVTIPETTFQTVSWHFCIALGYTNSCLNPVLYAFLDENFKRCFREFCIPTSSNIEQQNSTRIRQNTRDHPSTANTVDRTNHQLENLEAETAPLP
Settings: read-out: potency at GoB
pEC50: −log10 of the molar value.
metric name: pEC50

[[record]]
smiles_text = "CC[C@@H]1CN2CC[C@]3(Nc4cccc(OC)c4C3=O)[C@@H]2C[C@@H]1/C(=C\\OC)C(=O)OC"
numeric_readout = 8.49

